# ASSAYED_TARGET: DGKα (Homo sapiens (Human))
# Sequence (P23743 whole entry): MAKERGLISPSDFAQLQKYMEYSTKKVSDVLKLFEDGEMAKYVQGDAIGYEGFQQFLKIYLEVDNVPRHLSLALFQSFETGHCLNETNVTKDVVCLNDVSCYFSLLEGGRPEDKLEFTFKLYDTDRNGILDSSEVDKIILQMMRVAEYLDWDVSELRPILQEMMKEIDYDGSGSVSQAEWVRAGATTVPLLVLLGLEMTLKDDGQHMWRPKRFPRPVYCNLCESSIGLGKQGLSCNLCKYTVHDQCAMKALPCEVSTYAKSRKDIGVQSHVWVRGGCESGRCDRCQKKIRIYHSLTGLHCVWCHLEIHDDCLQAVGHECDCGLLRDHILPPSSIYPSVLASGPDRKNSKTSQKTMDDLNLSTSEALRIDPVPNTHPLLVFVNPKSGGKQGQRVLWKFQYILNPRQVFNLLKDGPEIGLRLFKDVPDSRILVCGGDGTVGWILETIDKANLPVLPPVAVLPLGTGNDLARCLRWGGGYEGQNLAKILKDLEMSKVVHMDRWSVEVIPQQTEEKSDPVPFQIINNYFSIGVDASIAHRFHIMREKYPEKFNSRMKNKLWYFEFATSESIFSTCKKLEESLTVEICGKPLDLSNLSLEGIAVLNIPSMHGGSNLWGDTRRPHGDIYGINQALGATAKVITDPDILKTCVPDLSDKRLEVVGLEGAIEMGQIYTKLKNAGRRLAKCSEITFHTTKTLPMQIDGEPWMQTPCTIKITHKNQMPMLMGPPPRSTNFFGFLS
Consider the following compounds and their measured IC50 readings.

# COMPOUND, ASSAYED_TARGET, IC50
measured = [
    ("CC[C@@H]1CN(c2cc(=O)n(C)c3cn(CC#N)nc23)[C@@H](C)CN1C(c1ccc(F)cc1)c1ccc(C(F)(F)F)cn1 (stereo partly drawn)", "DGKα (Homo sapiens (Human))", "0.123 µM"),
]

Recall the reported IC50 of CC(c1ccc(Cl)cc1C(F)(F)F)N1C[C@H](C)N(c2cc(=O)n(C)c3cn(CC#N)nc23)C[C@H]1C (stereo partly drawn) on DGKα (Homo sapiens (Human)) and write it down.
> 10 µM

Recall the reported IC50 of CC[C@H]1CN(C(C)c2ccc(C(F)(F)F)cc2)[C@H](CC)CN1c1cc(=O)n(C)c2cn(CC#N)nc12 (mixture of isomers) [Compound A103] on DGKα (Homo sapiens (Human)) and write it down.
0.208 µM

Recall the reported IC50 of COC1(c2cc(F)ccc2C(C)N2C[C@H](C)N(c3cc(=O)n(C)c4cn(CC#N)nc34)C[C@H]2C)CC1 (stereo partly drawn) on DGKα (Homo sapiens (Human)) and write it down.
> 150 µM

---

# ASSAYED_TARGET: DGKζ (Homo sapiens (Human))
# Sequence (Q13574 other isoform, or with tags, fused parts or gaps): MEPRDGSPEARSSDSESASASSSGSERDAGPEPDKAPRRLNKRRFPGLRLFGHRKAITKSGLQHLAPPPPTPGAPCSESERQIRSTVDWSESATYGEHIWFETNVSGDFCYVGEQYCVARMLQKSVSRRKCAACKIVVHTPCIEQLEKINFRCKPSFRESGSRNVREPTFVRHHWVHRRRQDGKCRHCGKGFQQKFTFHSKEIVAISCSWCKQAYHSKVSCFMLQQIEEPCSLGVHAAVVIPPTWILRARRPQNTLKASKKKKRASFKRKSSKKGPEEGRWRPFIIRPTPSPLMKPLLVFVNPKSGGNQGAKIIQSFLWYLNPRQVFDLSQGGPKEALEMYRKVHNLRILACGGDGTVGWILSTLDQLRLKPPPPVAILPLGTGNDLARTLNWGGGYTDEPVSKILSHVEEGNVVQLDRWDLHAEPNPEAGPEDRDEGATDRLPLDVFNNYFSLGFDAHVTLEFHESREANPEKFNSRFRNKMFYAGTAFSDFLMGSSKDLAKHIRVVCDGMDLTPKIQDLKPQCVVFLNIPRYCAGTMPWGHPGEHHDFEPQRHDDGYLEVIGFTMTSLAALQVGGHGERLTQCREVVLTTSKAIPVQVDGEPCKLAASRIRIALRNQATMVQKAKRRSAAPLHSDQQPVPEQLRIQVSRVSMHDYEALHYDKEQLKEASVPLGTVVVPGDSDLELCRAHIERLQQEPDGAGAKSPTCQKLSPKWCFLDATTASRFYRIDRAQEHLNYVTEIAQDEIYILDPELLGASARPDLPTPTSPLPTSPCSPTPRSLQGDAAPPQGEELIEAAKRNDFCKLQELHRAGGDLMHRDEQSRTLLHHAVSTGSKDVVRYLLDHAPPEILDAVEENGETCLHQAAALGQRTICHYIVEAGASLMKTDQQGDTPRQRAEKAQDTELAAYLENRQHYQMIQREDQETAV
# PROCEDURE_DETAILS: Biochemical DGK IC50 assay, DGKζ ADP-Glo assay
# CONDITION_SET: 0.5 nM enzyme, 140 μM ATP, 80 μM DAG; read-out: DGKζ ADP-Glo assay IC50
Consider the following molecules and their measured log10 of IC50 readings.
In plain terms, each number is the log10 of measured IC50 in nM.

# MOLECULE, log10 of IC50
data = [
    ("CCC(c1ccc(C(C)(C)C#N)cc1)N1C[C@H](CC)N(c2cc(=O)n(C)c3cn(CC#N)nc23)C[C@H]1CC (stereo partly drawn)", 2.56),
    ("CC(c1ccc2nccnc2c1)N1C[C@H](C)N(c2cc(=O)n(C)c3cn(C(=O)C4CC4)nc23)C[C@H]1C (stereo partly drawn)", 4.53),
    ("CC[C@H]1CN(C(C)c2ccc(CN3C[C@@H](C)O[C@@H](C)C3)cc2)[C@H](CC)CN1c1cc(=O)n(C)c2cn(CC#N)nc12 (stereo partly drawn)", 2.83),
    ("[2H]C([2H])([2H])c1cnc2ccc(C(C)N3C[C@H](C)N(c4cc(=O)n(C)c5cn(CC#N)nc45)C[C@H]3C)cc2n1 (single isomer, unassigned) [Compound A313a]", 3.92),
    ("CC[C@@H]1CN(c2nc(=O)[nH]c3cn(CC#N)nc23)[C@@H](C)CN1C(C)c1ccc2nccnc2c1 (single isomer, unassigned) [Compound A183a]", 2.04),
    ("CC(c1ccc2c(c1)OCCO2)N1C[C@H](C)N(c2cc(=O)n(C)c3cn(CC#N)nc23)C[C@H]1C (stereo partly drawn) [Compound A43]", 1.81),
    ("CC[C@H]1CN(C(C)c2ncc(OC(F)(F)F)cc2F)[C@H](CC)CN1c1cc(=O)n(C)c2cn(CC#N)nc12 (single isomer, unassigned) [Compound A362b]", 2.48),
    ("CC[C@H]1CN(C(C)c2ccc(F)cc2C#N)[C@H](CC)CN1c1cc(=O)n(C)c2cn(CC#N)nc12 (single isomer, unassigned) [Compound A224b]", 3.69),
]

Here is the next item to consider.
Give the reported log10 of IC50 for this molecule. CC[C@H]1CN(C(C)c2ccc3ncccc3c2)[C@H](CC)CN1c1cc(=O)n(C)c2cn(CC#N)nc12 (stereo partly drawn)
1.23
